- Assay Info: physchem
- Stated Conditions: simulated gastric fluid, thermodynamic from solid

Compound | Units Label | solubility
COc1ccc2cccc(CCNC(C)=O)c2c1 [Agomelatine crystallographic form II] | µg/mL | 290

###

- Assay Info: physchem
- Stated Conditions: water, thermodynamic from solid
Measured Property: solubility (µg/mL)

Molecule | Measured Property | Value Observed
COc1ccc2cccc(CCNC(C)=O)c2c1 [Agomelatine crystallographic form II] | solubility | 270
